Reference for the values: ChEMBL document CHEMBL5058577

# Population Normal (%) per record follows
- Test system: Fibroblast
- ASSAY: Multiplex assay against human fibroblast
- Type: toxicity, cell-based
- RUN CONDITIONS: 24 h, 10 µM, compound concentration 10 uM, replicate 2
EXPERIMENTAL READOUT: Population Normal (%)

compound=O=C(O)c1cc2ccccc2c(Cc2c(O)c(C(=O)O)cc3ccccc23)c1O readout_number=94
compound="COc1ccc2c(c1)C(C(=O)N(Cc1ccc(N(C)C)cc1)c1ccc(C(C)C)cc1)CCC2.Cl (stereo not given)" readout_number=97
compound=CCCn1c(=O)c2[nH]c(C3CCCC3)nc2n(CCC)c1=O readout_number=93
compound=CSCC[C@H](NC=O)C(=O)N[C@@H](CC(C)C)C(=O)N[C@@H](Cc1ccccc1)C(=O)O readout_number=67
compound=CC1(COc2ccc3c(c2)ncn3-c2ccc3cccc(N4CCC(N)CC4)c3n2)COC1 readout_number=82

---

- Test system: U2OS
- ASSAY: Multiplex assay against U2OS
- Type: toxicity, cell-based
- RUN CONDITIONS: human, 12 h, 1 µM, compound concentration 1 uM, replicate 2
Binarize Population Pyknosed Nuclei (%) at 10%; below is true (1), at or above is false (0).

molecule="CN1CCN2c3ncccc3Cc3ccccc3C2C1 (centres undefined)" system=U2OS label_class="true (1)"
molecule="Cc1ccccc1C(=O)Nc1ccc(C(=O)N2CCCC(N(C)C)c3ccccc32)cc1.Cl (centres undefined)" system=U2OS label_class="true (1)"
molecule=CN1CCN(c2nc3cc(C(F)(F)F)ccc3n3cccc23)CC1.O=C(O)/C=C\C(=O)O.O=C(O)/C=C\C(=O)O system=U2OS label_class="true (1)"
molecule=Cc1ccc(/C(=C\CN2CCCC2)c2ccccn2)cc1 system=U2OS label_class="false (0)"
molecule=C[C@H]1[C@H]2CC[C@H]3[C@@H]4CC=C5C[C@@H](N(C)C)CC[C@]5(C)[C@H]4CC[C@]23CN1C system=U2OS label_class="true (1)"
molecule="O=S(=O)(c1ccccc1)c1cnc2c(N3CCNCC3)cccc2c1 [INTEPIRDINE]" system=U2OS label_class="false (0)"
molecule=Cc1ccc(-c2ccc(F)cc2COc2ccc(CCC(=O)O)cc2)cc1 system=U2OS label_class="true (1)"
molecule="CSc1ccccc1N1CCN(CCCCCC(=O)NC2CCCc3ccccc32)CC1.Cl (centres undefined)" system=U2OS label_class="false (0)"

---

- Test system: U2OS
- ASSAY: Multiplex assay against U2OS
- Assay type: toxicity, cell-based
- RUN CONDITIONS: human, 48 h, 1 µM, compound concentration 1 uM, replicate 1
Could you label it y if measured Population Pyknosed Nuclei (%) is 8% or higher, and n otherwise?

compound="O=S(=O)(c1ccccc1)c1cnc2c(N3CCNCC3)cccc2c1 [INTEPIRDINE]" system=U2OS label_class=y
compound="C[C@@H]1C[C@H]2[C@@H]3CCC4=CC(=O)C=C[C@]4(C)[C@@]3(F)[C@@H](O)C[C@]2(C)[C@@]1(O)C(=O)CO [DEXAMETHASONE]" system=U2OS label_class=n
compound="CCCN1CCC[C@@H]2Cc3n[nH]cc3C[C@H]21.Cl [QUINPIROLE HYDROCHLORIDE]" system=U2OS label_class=n
compound="CNC[C@H](O)c1ccc(O)c(O)c1 [EPINEPHRINE]" system=U2OS label_class=y
compound="CC(C)(C)c1ccc(S(=O)(=O)Nc2ccc(Cl)cc2C(=O)c2cc[n+]([O-])cc2)cc1 [VERCIRNON]" system=U2OS label_class=n
compound=O=C1COc2nccc(-c3ccccc3F)c2CN1Cc1cc(C(F)(F)F)cc(C(F)(F)F)c1 system=U2OS label_class=y
compound="Cc1ccc(F)cc1C(=O)Nc1ccc(C(=O)N2Cc3cccn3Cc3ccccc32)c(Cl)c1 [LIXIVAPTAN]" system=U2OS label_class=y

---

- System: HEK-293T
- ASSAY: Multiplex assay against HEK293T
- Assay type: toxicity, cell-based
- RUN CONDITIONS: human, 12 h, 1 µM, compound concentration 1 uM, replicate 2
Overview of recorded Population Apoptotic (%) for various compounds
EXPERIMENTAL READOUT: Population Apoptotic (%)

compound="O=S(=O)(c1ccccc1)c1cnc2c(N3CCNCC3)cccc2c1 [INTEPIRDINE]" system=HEK-293T readout_number=50
compound=CN(C)c1ccnc2sc3c(=O)n(N4CCCCCC4)cnc3c12 system=HEK-293T readout_number=51
compound=CCOc1c2c(c(OCC)c3ncccc13)CN(c1ccc(CS(=O)(=O)NC(=O)Cc3ccccc3OC)cc1C)C2=O system=HEK-293T readout_number=35
compound=Cc1nc2ccc(Oc3ccc(F)cc3)cc2c(=O)n1C[C@H]1CCCN(C(C)C)C1.Cl system=HEK-293T readout_number=61
compound=O=C(O)Cc1ccccc1Nc1c(Cl)cccc1Cl system=HEK-293T readout_number=52
compound=N[C@@]1(C(=O)O)CO[C@H]2[C@H](C(=O)O)[C@H]21 system=HEK-293T readout_number=42
compound=c1cc(OCCCN2CCCCC2)ccc1CN1CCCCC1 system=HEK-293T readout_number=47
compound=COc1c(C)cc(NC(=O)c2nn(Cc3ccc(F)cc3)c3c2CN(C(=O)c2ccc[nH]2)C[C@]3(C)C(N)=O)cc1C system=HEK-293T readout_number=38
compound=CSCC[C@H](NC=O)C(=O)N[C@@H](CC(C)C)C(=O)N[C@@H](Cc1ccccc1)C(=O)O system=HEK-293T readout_number=28

---

- System: Fibroblast
- ASSAY: Multiplex assay against human fibroblast
- Type: toxicity, cell-based
- RUN CONDITIONS: 24 h, 1 µM, compound concentration 1 uM, replicate 2
Item-by-item account of Population Hoechst High Intensity Objects (%)
EXPERIMENTAL READOUT: Population Hoechst High Intensity Objects (%)

compound="Cl.Clc1ccc2nsnc2c1NC1=NCCN1 [TIZANIDINE HYDROCHLORIDE]" units_symbol=% readout_number=4
compound="O=C(NCC(=O)N1CC[C@H](N[C@H]2CC[C@@](O)(c3ccc(-c4ncccn4)cn3)CC2)C1)c1cccc(C(F)(F)F)c1 [PF-4136309]" units_symbol=% readout_number=4
compound="Cc1ccccc1C(=O)Nc1ccc(C(=O)N2CCCC(N(C)C)c3ccccc32)cc1.Cl (centres undefined)" units_symbol=% readout_number=5
compound=O=C1COc2nccc(-c3ccccc3F)c2CN1Cc1cc(C(F)(F)F)cc(C(F)(F)F)c1 units_symbol=% readout_number=2
compound="CNC[C@H](O)c1ccc(O)c(O)c1 [EPINEPHRINE]" units_symbol=% readout_number=3
compound="Cc1ccc(F)cc1C(=O)Nc1ccc(C(=O)N2Cc3cccn3Cc3ccccc32)c(Cl)c1 [LIXIVAPTAN]" units_symbol=% readout_number=3
compound="CCCN1CCC[C@@H]2Cc3n[nH]cc3C[C@H]21.Cl [QUINPIROLE HYDROCHLORIDE]" units_symbol=% readout_number=2
compound="CC(=O)NCCc1c(Cc2ccccc2)[nH]c2ccccc12 [LUZINDOLE]" units_symbol=% readout_number=5
compound="Cc1ccc(C(C)(O)c2nc3ccccc3s2)c(C)c1 (centres undefined)" units_symbol=% readout_number=5

---

- Tested on: Fibroblast
- ASSAY: Multiplex assay against human fibroblast
- Assay type: toxicity, cell-based
- RUN CONDITIONS: 48 h, 1 µM, compound concentration 1 uM, replicate 2
EXPERIMENTAL READOUT: Population Pyknosed Nuclei (%)

chem_smiles=O=C1COc2nccc(-c3ccccc3F)c2CN1Cc1cc(C(F)(F)F)cc(C(F)(F)F)c1 system=Fibroblast readout_number=14
chem_smiles=O=C(NCC(=O)N1CC[C@H](N[C@H]2CC[C@@](O)(c3ccc(-c4ncccn4)cn3)CC2)C1)c1cccc(C(F)(F)F)c1 system=Fibroblast readout_number=13
chem_smiles=N#Cc1c(N)nc(SCc2csc(-c3ccc(Cl)cc3)n2)c(C#N)c1-c1ccc(OCCO)cc1 system=Fibroblast readout_number=17
chem_smiles=CC1(COc2ccc3c(c2)ncn3-c2ccc3cccc(N4CCC(N)CC4)c3n2)COC1 system=Fibroblast readout_number=12

---

- Test system: U2OS
- ASSAY: Multiplex assay against U2OS
- Format: toxicity, cell-based
- RUN CONDITIONS: human, 24 h, 10 µM, compound concentration 10 uM, replicate 1
EXPERIMENTAL READOUT: Population Membrane Permeable-Phenotype (%)

compound=CN1CCN(c2nc3cc(C(F)(F)F)ccc3n3cccc23)CC1.O=C(O)/C=C\C(=O)O.O=C(O)/C=C\C(=O)O readout_number=16
compound=CCNC1(C(N)=O)CCN(c2ncnc3c2nc(-c2ccccc2Cl)n3-c2ccc(Cl)cc2)CC1 readout_number=55
compound=N#Cc1c(N)nc(SCc2csc(-c3ccc(Cl)cc3)n2)c(C#N)c1-c1ccc(OCCO)cc1 readout_number=47
compound=Cc1nc2ccc(Oc3ccc(F)cc3)cc2c(=O)n1C[C@H]1CCCN(C(C)C)C1.Cl readout_number=37
compound="CNC[C@H](O)c1ccc(O)c(O)c1 [EPINEPHRINE]" readout_number=11
compound="Cc1ccc(C(C)(O)c2nc3ccccc3s2)c(C)c1 (stereo not drawn)" readout_number=5
compound=N[C@@]1(C(=O)O)CO[C@H]2[C@H](C(=O)O)[C@H]21 readout_number=8
compound=CCCC(CCC)C(=O)O readout_number=4
compound=CC1(COc2ccc3c(c2)ncn3-c2ccc3cccc(N4CCC(N)CC4)c3n2)COC1 readout_number=42
compound=Cc1ccc(F)cc1C(=O)Nc1ccc(C(=O)N2Cc3cccn3Cc3ccccc32)c(Cl)c1 readout_number=65
compound=O=C(O)c1cc2ccccc2c(Cc2c(O)c(C(=O)O)cc3ccccc23)c1O readout_number=5
compound="CSc1ccccc1N1CCN(CCCCCC(=O)NC2CCCc3ccccc32)CC1.Cl (stereo not drawn)" readout_number=79
compound=c1cc(OCCCN2CCCCC2)ccc1CN1CCCCC1 readout_number=4
compound=CC[C@H]1OC(=O)[C@H](C)[C@@H](O[C@H]2C[C@@](C)(OC)[C@@H](O)[C@H](C)O2)[C@H](C)[C@@H](O[C@@H]2O[C@H](C)C[C@H](N(C)C)[C@H]2O)[C@@]2(C)CC(C)=C(O2)[C@H](C)[C@@H](O)[C@]1(C)O readout_number=56
compound=CN(C)c1ccnc2sc3c(=O)n(N4CCCCCC4)cnc3c12 readout_number=22
compound=O=C1COc2nccc(-c3ccccc3F)c2CN1Cc1cc(C(F)(F)F)cc(C(F)(F)F)c1 readout_number=21
compound=O=C(NCC(=O)N1CC[C@H](N[C@H]2CC[C@@](O)(c3ccc(-c4ncccn4)cn3)CC2)C1)c1cccc(C(F)(F)F)c1 readout_number=10
compound="CN1CCN2c3ncccc3Cc3ccccc3C2C1 (stereo not drawn)" readout_number=4
